Where do the numbers come from? From patent US20190177416A1.

// reported OD ratio (experimental group (A405 nm)/control group (A405 nm)) per item
- system-name: T1, human PD-L1 protein (coated antigen) (human, UniProt Q9NZQ7 19-238, limits assumed)
- T1 construct: Construct not described; also called PD-L1 antigen; antigenic protein PD-L1
- T1 sequence (Q9NZQ7 19-238 limits assumed): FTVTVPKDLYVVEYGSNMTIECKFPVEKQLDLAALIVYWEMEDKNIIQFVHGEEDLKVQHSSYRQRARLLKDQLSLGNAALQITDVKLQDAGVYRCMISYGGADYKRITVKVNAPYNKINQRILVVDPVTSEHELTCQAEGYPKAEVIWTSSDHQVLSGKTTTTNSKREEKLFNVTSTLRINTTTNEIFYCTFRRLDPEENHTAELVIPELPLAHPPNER
- method-notes: PE-ELISA, crude extract on coated PD-L1
measured-endpoint: OD ratio (experimental group (A405 nm)/control group (A405 nm))

| binder | reported-result |
| --- | --- |
| SEQ ID NO 27 (VHH, pMECS-expressed; also called VHH numbered 27) VHH: QVQLQESGGGSVQTGGSLRLSCTASTSIYSNNYMAWFSQSPGKGREGVAAVYMDDGRPYYADSVKGRFTISLDSAKNTMYLQMNSLKPEDTAMYYCAAAPGPLSRNYWYTSANYDYWGQGTQVTVSS | > 20 |
| SEQ ID NO 34 (VHH, pMECS-expressed; also called VHH numbered 34) VHH: QVQLQESGGGSVQAGGSLRLSCAASGYTRSLYCMGWFRQAPGREREGVAHVYTGDGSPYYADSVKGRFTISQDNGESTLYLQMNNLKPEDTAMYYCAAGTSALSRPYGPISYGYWYWGQGTQVTVSS | > 20 |
| SEQ ID NO 5 (VHH, pMECS-expressed; also called anti-PD-L1 nanobody No. 5; VHH numbered 5) VHH: QVQLQESGGGSVQTGGSLRLSCAASTSIYSNNYMAWFSQAPGKGREGVAAVYIDDGRPYYADSVKGRFTISLDSAKNTVYLQMNGLKPEDTAMYYCAAAPGPLSRNYWYTSANYDYWGQGTQVTVSS | > 20 |
